// provenance: patent US6010851A

- measurement target: acid phosphatase sample derived from Morganella morganii (Morganella morganii)
- Construct: homo-oligomer; signal peptide removed
- Sequence (P28581 21-249): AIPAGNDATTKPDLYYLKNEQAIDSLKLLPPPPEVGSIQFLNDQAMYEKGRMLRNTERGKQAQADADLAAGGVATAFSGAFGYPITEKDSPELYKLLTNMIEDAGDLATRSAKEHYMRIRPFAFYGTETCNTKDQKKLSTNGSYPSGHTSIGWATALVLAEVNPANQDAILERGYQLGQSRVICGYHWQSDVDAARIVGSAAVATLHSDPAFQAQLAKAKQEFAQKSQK
- assay summary: Phosphorylation reaction of various nucleosides by acid phosphatase sample
- Assay type: biochemical, Morganella morganii NCIMB 10466
- test conditions: sodium pyrophosphate 10 g/dl, nucleoside 2 g/dl, enzyme 50 units/dl, pH 4.0, 30° C., 3 hours
- Description: Incidentally, in the reaction to produce nucleoside-5'-phosphate esters using nucleosides other than inosine as raw materials, the nucleosides as raw materials and produced nucleoside-5'-phosphate esters were analyzed by HPLC as described above. Sodium pyrophosphate (10 g/dl) and inosine (2 g/dl) were dissolved in sodium acetate buffers each having pH of 5.5, 5.0, 4.5, 4.0, and 3.5, to which the enzyme sample described above was added so that a concentration of 50 units/dl was obtained. […]
Measured Produced amount of nucleoside-5'-ester accompanies every entry in the list below.
Numbers only; they are read as g/dL.

Observe how each entry below is paired with its result.
Nc1nc2c(ncn2[C@@H]2O[C@H](CO)[C@@H](O)[C@H]2O)c(=O)[nH]1 = 1.90
O=c1ccn([C@@H]2O[C@H](CO)[C@@H](O)[C@H]2O)c(=O)[nH]1 = 1.30
OC[C@H]1O[C@@H](n2cnc3c(O)ncnc32)[C@H](O)[C@@H]1O = 2.60

Could you now look at the following molecule, please?
Produced amount of nucleoside-5'-ester value, target or system acid phosphatase sample derived from Morganella morganii (Morganella morganii), for Nc1ccn([C@@H]2O[C@H](CO)[C@@H](O)[C@H]2O)c(=O)n1 : 0.98
